Quick reference for IC50 among some compounds
# STUDY_TARGET: full-length beta-Catenin (Uniprot ID P35222) (Homo sapiens)
# Construct: 10 nM full-length beta-Catenin (Uniprot ID P35222)
# Sequence (P35222 1-781): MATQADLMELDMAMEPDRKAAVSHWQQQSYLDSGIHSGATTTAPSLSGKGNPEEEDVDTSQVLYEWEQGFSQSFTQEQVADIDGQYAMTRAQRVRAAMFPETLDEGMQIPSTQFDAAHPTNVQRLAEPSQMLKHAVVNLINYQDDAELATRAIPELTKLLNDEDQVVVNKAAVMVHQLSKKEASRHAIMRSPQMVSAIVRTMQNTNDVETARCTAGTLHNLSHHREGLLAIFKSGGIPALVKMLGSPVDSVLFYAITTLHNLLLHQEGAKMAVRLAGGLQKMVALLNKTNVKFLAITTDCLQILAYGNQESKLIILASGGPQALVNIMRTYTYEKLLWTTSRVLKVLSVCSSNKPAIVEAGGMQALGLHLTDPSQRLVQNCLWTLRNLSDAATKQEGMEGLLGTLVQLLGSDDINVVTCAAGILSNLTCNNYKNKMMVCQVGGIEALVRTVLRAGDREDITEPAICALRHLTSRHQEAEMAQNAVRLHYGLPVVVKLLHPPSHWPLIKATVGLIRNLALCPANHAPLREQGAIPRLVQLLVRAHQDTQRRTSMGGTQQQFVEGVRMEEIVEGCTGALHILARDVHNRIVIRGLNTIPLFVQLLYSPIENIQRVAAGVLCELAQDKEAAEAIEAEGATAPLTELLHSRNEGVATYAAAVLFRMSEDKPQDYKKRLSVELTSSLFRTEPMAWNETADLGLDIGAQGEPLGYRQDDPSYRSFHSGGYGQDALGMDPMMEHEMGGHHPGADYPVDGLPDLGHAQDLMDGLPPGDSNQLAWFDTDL
# PROCEDURE_DETAILS: Fluorescence polarization IC50 (beta-catenin / 5FAM-TCF4 10-53 competition)
# Type: binding
# STUDY_CONDITIONS: fluorescence polarization; read-out: beta-Catenin FP IC50
ENDPOINT_LABEL: IC50 (nM)

- CC(=O)N1CCC[C@]12CC=CCCCC1(CCCC=CCCCOC(=O)N3CC[C@@](C(=O)N[C@@H](Cc4ccsc4)C(=O)N[C@@H](Cc4csc5ccccc45)C(=O)N[C@@H](CCC(N)=O)C(N)=O)(C3)NC(=O)[C@H](CC(C)C)NC(=O)[C@H](Cc3ccccc3)NC(=O)[C@H](C)NC(=O)[C@H](C)NC(=O)[C@H](CC(=O)O)NC(=O)[C@H](CC(=O)O)NC1=O)NC(=O)[C@H](CC(C)(C)C)NC(=O)[C@H](CCO)NC2=O (some centres unmarked): 134
- CC(=O)N1CCC[C@]12CCCCCCC1(CCCCCCCCOC(=O)N3CC[C@](C(=O)N[C@@H](Cc4ccsc4)C(=O)N[C@@H](Cc4csc5ccccc45)C(=O)N[C@@H](CCC(N)=O)C(N)=O)(C3)NC(=O)[C@H](CC(N)=O)NC(=O)[C@H](Cc3ccccc3)NC(=O)[C@H](C)NC(=O)[C@H](C)NC(=O)[C@H](CC(=O)O)NC(=O)[C@H](CC(=O)O)NC1=O)NC(=O)[C@H](CC(C)(C)C)NC(=O)[C@H](CC(=O)O)NC2=O (some centres unmarked): 5380

---

# STUDY_TARGET: full-length beta-Catenin (Uniprot ID P35222) (Homo sapiens, UniProt P35222)
# Construct: 10 nM full-length beta-Catenin (Uniprot ID P35222)
# PROCEDURE_DETAILS: Fluorescence polarization IC50 (beta-catenin / 5FAM-TCF4 10-53 competition)
# Format: binding
# STUDY_CONDITIONS: fluorescence polarization, beta-catenin; read-out: FP EC50
ENDPOINT_LABEL: IC50 (nM)

* CC(=O)N1CCC[C@]12CC=CCCCC1(CCCC=CCCCOC(=O)N3CC[C@@](C(=O)N[C@@H](Cc4ccsc4)C(=O)N[C@@H](Cc4csc5ccccc45)C(=O)N[C@@H](CCC(N)=O)C(=O)NCCCCCCN)(C3)NC(=O)[C@H](CC(N)=O)NC(=O)[C@H](Cc3ccccc3)NC(=O)[C@H](C)NC(=O)[C@H](C)NC(=O)[C@H](CC(=O)O)NC(=O)[C@H](CC(=O)O)NC1=O)NC(=O)[C@H](CC(C)(C)C)NC(=O)[C@H](CC(=O)O)NC2=O (some centres unmarked) [I-881] | 10
* CC(=O)N1CCC[C@]12CC=CCCCC1(CCCC=CCCCCCC[C@@](C)(C(=O)N[C@@H](Cc3ccccc3)C(=O)N[C@@H](Cc3c[nH]c4ccccc34)C(=O)N[C@@H](C)C(N)=O)NC(=O)[C@H](C(C)C)NC(=O)[C@H](Cc3ccccc3)NC(=O)[C@H](C)NC(=O)[C@H](C)NC(=O)[C@H](CC(=O)O)NC(=O)[C@H](CC(=O)O)NC1=O)NC(=O)[C@H](C)NC(=O)[C@H](CC(=O)O)NC2=O (some centres unmarked) [I-291] | 3130
* CC(=O)N1CCC[C@]12CC=CCCCC1(CCCC=CCCCCCC[C@@](C)(C(=O)N[C@@H](Cc3ccccc3Cl)C(=O)N[C@@H](Cc3csc4ccccc34)C(=O)N[C@@H](CCC(N)=O)C(N)=O)NC(=O)[C@H]([C@@H](C)O)NC(=O)[C@H](Cc3ccccc3)NC(=O)[C@H](C)NC(=O)[C@H](C)NC(=O)[C@H](CCC(=O)O)NC(=O)[C@H](CC(=O)O)NC1=O)NC(=O)[C@H](CC(C)(C)C)NC(=O)[C@H](CC(=O)O)NC2=O (some centres unmarked) [I-1088] | 22
* CC(=O)N1CCC[C@]12CC=CCCCC1(CCCC=CCCCOC(=O)N3CC[C@@](C(=O)N[C@@H](Cc4ccsc4)C(=O)N[C@@H](Cc4csc5ccccc45)C(=O)N[C@@H](CCC(N)=O)C(N)=O)(C3)NC(=O)[C@H](CO)NC(=O)[C@H](Cc3ccccc3)NC(=O)[C@H](C)NC(=O)[C@H](C)NC(=O)[C@H](Cc3cccc(C(=O)O)c3)NC(=O)[C@H](CC(=O)O)NC1=O)NC(=O)[C@H](CC(C)(C)C)NC(=O)[C@H](CC(=O)O)NC2=O (some centres unmarked) [I-979] | 240
* COc1ccc(C[C@@H]2NC(=O)[C@H](C)NC(=O)[C@H](C)NC(=O)[C@H](CCC(=O)O)NC(=O)[C@H](CC(=O)O)NC(=O)C3(CCCC=CCCCCCC[C@@](C)(C(=O)N[C@@H](Cc4ccccc4)C(=O)N[C@@H](Cc4c[nH]c5ccccc45)C(=O)N[C@@H](CCC(N)=O)C(N)=O)NC(=O)[C@H](C(C)C)NC2=O)CCCC=CC[C@]2(CCCN2C(C)=O)C(=O)N[C@@H](CC(=O)O)C(=O)N[C@@H](C)C(=O)N3)cc1 (some centres unmarked) | 1960
